Biological target: Solute carrier organic anion transporter family member 1B3 (Homo sapiens, UniProt Q9NPD5)
Sequence (Q9NPD5 whole entry): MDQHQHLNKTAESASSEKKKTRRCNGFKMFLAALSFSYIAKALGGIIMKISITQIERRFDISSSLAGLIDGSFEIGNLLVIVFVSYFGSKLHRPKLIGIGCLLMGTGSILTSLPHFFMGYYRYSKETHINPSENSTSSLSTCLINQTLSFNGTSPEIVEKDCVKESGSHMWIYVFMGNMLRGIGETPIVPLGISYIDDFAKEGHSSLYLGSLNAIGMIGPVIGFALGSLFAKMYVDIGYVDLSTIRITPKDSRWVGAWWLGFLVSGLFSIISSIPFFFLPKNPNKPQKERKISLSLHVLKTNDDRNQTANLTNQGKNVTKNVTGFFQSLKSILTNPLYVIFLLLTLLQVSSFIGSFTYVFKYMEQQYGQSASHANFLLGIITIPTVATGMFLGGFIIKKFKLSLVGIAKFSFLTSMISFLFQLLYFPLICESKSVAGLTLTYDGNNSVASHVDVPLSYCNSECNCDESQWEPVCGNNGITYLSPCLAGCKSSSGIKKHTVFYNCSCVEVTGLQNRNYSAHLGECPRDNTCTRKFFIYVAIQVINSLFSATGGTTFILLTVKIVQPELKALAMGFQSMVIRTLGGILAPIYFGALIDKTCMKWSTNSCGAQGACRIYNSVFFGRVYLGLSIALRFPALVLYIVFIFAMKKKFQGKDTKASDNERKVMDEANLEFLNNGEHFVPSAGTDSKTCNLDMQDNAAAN
Assay: Inhibition of human liver OATP1B3 expressed in HEK293 Flp-In cells assessed as reduction in [3H]E17-betaG uptake at 20 uM incubated for 5 mins by scintillation counting
Conditions: hek293, 5 min

{"compound": "CC(C)Cc1ccc(C(C)C(=O)O)cc1 (stereo not drawn) [IBUPROFEN]", "INH": "-6.6%"}
{"compound": "C[n+]1cc2c3c(ccc2c2ccc4cc5c(cc4c21)OCO5)OCO3", "INH": "2.9%"}
{"compound": "COCc1c(C(C)C)nc(C(C)C)c(/C=C/[C@@H](O)C[C@@H](O)CC(=O)O)c1-c1ccc(F)cc1 [CERIVASTATIN]", "INH": "68.1%"}
